pIC50: recorded values
# Tested system: BRD4 BD1 (Homo sapiens, UniProt O60885)
# Procedure summary: AlphaScreen binding assay, BRD4 Bromodomain 1
pIC50: −log10 of the molar value.

// field: pIC50; key: "COC(=O)N1c2ccc(-c3cnn(C4CC4)c3)cc2N(C(=O)Oc2ccccn2)C[C@@H]1C" ; value = 6.00 to 7.00

====

# Tested system: BRD4 BD2 (Homo sapiens, UniProt O60885)
# Procedure summary: AlphaScreen binding assay, BRD4 Bromodomain 2
pIC50: −log10 of the molar value.
Value type: pIC50

Some solved cases for reference:
{"Compound": "CCN(CC)S(=O)(=O)c1cc(-c2ccc3c(c2)N(C(=O)OC(C)C)C[C@H](C)N3C(C)=O)ccc1OC [Example I-1115]", "Tested system": "BRD4 BD2 (Homo sapiens, UniProt O60885)", "pIC50": "6.30 to 7.30"}
{"Compound": "CCCn1cc(-c2ccc3c(c2)N(C(=O)c2ccco2)C[C@H](C)N3C(C)=O)cn1 [Example I-269]", "Tested system": "BRD4 BD2 (Homo sapiens, UniProt O60885)", "pIC50": "> 7.30"}
{"Compound": "CC(=O)N1c2ccc(-c3cnn(C4COC4)c3)cc2N(C(=O)OCCC2COC2)C[C@@H]1C [Example I-67]", "Tested system": "BRD4 BD2 (Homo sapiens, UniProt O60885)", "pIC50": "< 6.30"}
{"Compound": "CC(=O)N1c2ccc(-c3cnn(C4CC4)c3)cc2N(C(=O)Oc2ccccc2C)C[C@@H]1C [Example I-509]", "Tested system": "BRD4 BD2 (Homo sapiens, UniProt O60885)", "pIC50": "6.30 to 7.30"}
{"Compound": "CC(=O)N1c2ccc(-c3ccc(S(C)(=O)=O)cc3)cc2N(C(=O)OC2CCC(F)(F)CC2)C[C@@H]1C [Example I-32]", "Tested system": "BRD4 BD2 (Homo sapiens, UniProt O60885)", "pIC50": "> 7.30"}
{"Compound": "CC(=O)N1c2ccccc2N(C(=O)c2cc3ccccc3o2)C[C@@H]1C [Example I-751]", "Tested system": "BRD4 BD2 (Homo sapiens, UniProt O60885)", "pIC50": "< 6.30"}

Per the record, COC(=O)N1c2ccc(-c3cnn(CC4CC4)c3)cc2N(C(=O)OC(C)C)C[C@@H]1C [Example I-325] has pIC50 of 6.30 to 7.30

Recorded pIC50 (compound COc1ccc(-c2ccc3c(c2)N(C(=O)C2CCC2)C[C@H](C)N3C(C)=O)cc1NS(C)(=O)=O [Example I-1140] ): 6.30 to 7.30

====

pIC50 values for the molecules below.
# Tested system: BRD4 BD1 (Homo sapiens, UniProt O60885)
# Procedure summary: AlphaScreen binding assay, BRD4 Bromodomain 1
pIC50: −log10 of the molar value.

{"Molecule": "CC(C)OC(=O)N1C[C@H](C)N(C(=O)C2CC2)c2ccc(-c3cnn(CC4COC4)c3)cc21 [Example I-643]", "Reported result": "6.00 to 7.00"}
{"Molecule": "CC(C)OC(=O)N1C[C@H](C)N(C(=O)C2CC2)c2ccc(-c3ccc(C(=O)N4CC[C@@H](N(C)C)C4)cc3)cc21 [Example I-564]", "Reported result": "6.00 to 7.00"}
{"Molecule": "CC(=O)N1c2ccc(-c3ccc(F)cc3)cc2N(C(=O)c2ccco2)C[C@@H]1C [Example I-818]", "Reported result": "5.00 to 6.00"}
{"Molecule": "CC(=O)N1c2ccc(-c3cnn(C4CC4)c3)cc2N(C(=O)Oc2ccc(Cl)cc2C)C[C@@H]1C [Example I-267]", "Reported result": "6.00 to 7.00"}
{"Molecule": "CC(=O)N1c2ccc(-c3cnn(CCN4CCOCC4)c3)cc2N(C(=O)OC(C)C)C[C@@H]1C [Example I-306]", "Reported result": "6.00 to 7.00"}
{"Molecule": "CC(=O)N1c2ccc(-c3ncccn3)cc2N(C(=O)c2ccco2)C[C@@H]1C [Example I-383]", "Reported result": "5.00 to 6.00"}
{"Molecule": "CC(C)OC(=O)N1C[C@H](C)N(C(=O)C2CC2)c2ccc(-c3cnn(CC4CCS(=O)(=O)CC4)c3)cc21 [Example I-609]", "Reported result": "6.00 to 7.00"}
{"Molecule": "CCS(=O)(=O)Nc1cccc(-c2ccc3c(c2)N(C(=O)OC(C)C)C[C@H](C)N3C(C)=O)c1 [Example I-1057]", "Reported result": "6.00 to 7.00"}

Attention now turns to another entry.
Reported pIC50 ( C[C@H]1CN(C(=O)c2ccco2)c2cc(-c3ccc(S(C)(=O)=O)cc3)ccc2N1C(=O)CO [Example I-367] ) = < 5.00

====

# Tested system: BRD4 BD2 (Homo sapiens)
# Procedure summary: AlphaScreen binding assay, BRD4 Bromodomain 2
pIC50: −log10 of the molar value.
Catalogue of pIC50 values

As a guide, the following entries are already answered.
{"Compound": "CC(=O)N1c2ccc(-c3cnccn3)cc2N(C(=O)c2ccco2)C[C@@H]1C [Example I-384]", "pIC50": "6.30 to 7.30"}
{"Compound": "CC(=O)N1c2ccc(-c3cnn(C4CC4)c3)cc2N(c2nn(C)c3cccc(F)c23)C[C@@H]1C [Example I-183]", "pIC50": "> 7.30"}

# pIC50 of CC(=O)N1c2ccc(-c3ccc(S(=O)(=O)n4cccn4)cc3)cc2N(C(=O)OC2CCCCC2)C[C@@H]1C [Example I-1259] = 6.30 to 7.30

// pIC50 lookup, compound = CCOC(=O)N1C[C@H](C)N(C(C)=O)c2ccc(-c3ccc(S(=O)(=O)N(C)C)cc3)cc21 [Example I-1125] , result: 6.30 to 7.30

Entry CC(=O)N1c2ccc(-c3ccc(S(C)(=O)=O)cc3)cc2N(C(=O)N2CCCC2)C[C@@H]1C [Example I-100] — recorded pIC50 = 6.30 to 7.30

====

# Tested system: BRD4 BD2 (Homo sapiens)
# Procedure summary: AlphaScreen binding assay, BRD4 Bromodomain 2
pIC50: −log10 of the molar value.
Below, each entry is listed with its recorded pIC50.

{"Compound string": "CC(=O)N1c2ccc(-c3ccc(S(C)(=O)=O)cc3)cc2N(C(=O)Oc2cccc3ccccc23)C[C@@H]1C", "Tested system": "BRD4 BD2 (Homo sapiens)", "pIC50": "6.30 to 7.30"}
{"Compound string": "CC(=O)N1c2ccc(-c3cnn(Cc4nonc4C)c3)cc2N(C(=O)C2CC2)C[C@@H]1C", "Tested system": "BRD4 BD2 (Homo sapiens)", "pIC50": "6.30 to 7.30"}
{"Compound string": "CC(=O)N1c2ccc(-c3cnn(C(C)(C)CO)c3)cc2N(C(=O)Oc2ccc(F)cc2F)C[C@@H]1C", "Tested system": "BRD4 BD2 (Homo sapiens)", "pIC50": "> 7.30"}
{"Compound string": "COC(=O)N1c2ccc(-c3cnn(CC4CCC4)c3)cc2N(C(=O)OC(C)C)C[C@@H]1C", "Tested system": "BRD4 BD2 (Homo sapiens)", "pIC50": "< 6.30"}

API: the following record is the query input.
"CC(C)OC(=O)N1C[C@H](C)N(C(=O)C2CC2)c2ccc(-c3ccc(C(=O)NCc4ncco4)cc3)cc21" yielded pIC50 of < 6.30

====

// values below are reported pIC50
# Tested system: BRD4 BD1 (Homo sapiens, UniProt O60885)
# Construct: made in house
# Procedure summary: AlphaScreen binding assay, BRD4 Bromodomain 1
pIC50: −log10 of the molar value.

{"Compound string": "COC(=O)N1c2ccc(-c3ccc(C(=O)NCc4ncco4)cc3)cc2N(C(=O)OC(C)C)C[C@@H]1C", "Tested system": "BRD4 BD1 (Homo sapiens, UniProt O60885)", "pIC50": "5.00 to 6.00"}
{"Compound string": "CC(=O)N1c2ccc(-c3ccc(S(=O)(=O)CC4CC4)cc3)cc2N(C(=O)C2CCC2)C[C@@H]1C", "Tested system": "BRD4 BD1 (Homo sapiens, UniProt O60885)", "pIC50": "5.00 to 6.00"}
{"Compound string": "CC(=O)N1c2ccc(-c3ccc(S(C)(=O)=O)cc3)cc2N(c2nc3ccccc3o2)C[C@@H]1C", "Tested system": "BRD4 BD1 (Homo sapiens, UniProt O60885)", "pIC50": "6.00 to 7.00"}
{"Compound string": "CC(C)OC(=O)N1C[C@H](C)N(C(=O)C2CC2)c2ccc(-c3cnn(CC4CCOCC4)c3)cc21", "Tested system": "BRD4 BD1 (Homo sapiens, UniProt O60885)", "pIC50": "6.00 to 7.00"}
{"Compound string": "CC(=O)N1c2ccc(N3CCCC3)cc2N(C(=O)c2ccco2)C[C@@H]1C", "Tested system": "BRD4 BD1 (Homo sapiens, UniProt O60885)", "pIC50": "5.00 to 6.00"}

// switching to the query compound
The compound listed as "COC(=O)N1c2ccc(-c3ccc(N(C)S(C)(=O)=O)cc3)cc2N(C(=O)Oc2cccnc2)C[C@@H]1C" shows pIC50 equal to 5.00 to 6.00
